measurement_protocol: qHTS assay for small molecule disruptors of the mitochondrial membrane potential - 5 hr assay (AID 651755); also: nearly all actives have a fitted effect of over 40% in size
study_conditions: JC-1-type ratio dye; series mostly up to 92.2 µM
Results filed as inconclusive are left out. Activity calls are given as the source filed them. Calls follow the shape of the full dose curve.
Please answer using one outcome listed in active, inactive

> print(dat)
                                molecule  discrete.label
1          Cc1ccc(C(=O)O)cc1[N+](=O)[O-]        inactive
2                          C[Si](C)(C)Cl        inactive
3                        Cc1ccc(O)c(N)c1          active
4                NC(=O)Nc1nc2ccccc2[nH]1        inactive
5  COc1cc(-c2ccc(N=C=O)c(OC)c2)ccc1N=C=O        inactive

For the next question, use this molecule.
Data request: Outcome logged for CCc1ccc(C(c2ccc(CC)cc2)C(Cl)Cl)cc1 in this assay:
Data returned: inactive

Cited source for all entries: PubChem BioAssay (NCATS)
